# System: MIA PaCa-2
# Experimental parameters: OFD1 knockdown: yes (Tet-on shOFD1, 100 ng/mL doxycycline)
Parameter: IC50 cell viability (µM)

[[record]]
molecule = "CCOc1ccc(Cc2cc([C@@H]3O[C@H](CO)[C@@H](O)[C@H](O)[C@H]3O)ccc2Cl)cc1"
parameter = "IC50 cell viability"
experimental_value = 17

[[record]]
molecule = "N#CC[C@H](C1CCCC1)n1cc(-c2ncnc3[nH]ccc23)cn1 [S2902]"
parameter = "IC50 cell viability"
experimental_value = 17.9

[[record]]
molecule = "COc1ccccc1OCC(O)CN1CCN(CC(=O)Nc2c(C)cccc2C)CC1 (stereo not drawn)"
parameter = "IC50 cell viability"
experimental_value = 19.2

[[record]]
molecule = "C[C@]12CCC(=O)C(O)=C1CC[C@@H]1[C@@H]2CC[C@]2(C)C(=O)CC[C@@H]12"
parameter = "IC50 cell viability"
experimental_value = 10.4


[a] COc1cccc2c1C(=O)c1c(O)c3c(c(O)c1C2=O)C[C@@](O)(C(=O)CO)C[C@@H]3O[C@H]1C[C@H](N)[C@@H](O)[C@H](C)O1
[b] CCN(CCO)CCCOc1ccc2c(Nc3cc(CC(=O)Nc4cccc(F)c4)[nH]n3)ncnc2c1
[c] CN(C)c1nc(N(C)C)nc(N(C)C)n1
[d] Cc1ccc(NC(=O)c2ccc(CN3CCN(C)CC3)cc2)cc1Nc1nccc(-c2cccnc2)n1 [S2475]
Task: Please put the entries in order of rising IC50 cell viability. Record the ranking as a list of labels in the requested order.
Output: a, c, d, b

---

# Tested on: MIA PaCa-2
# Experimental parameters: OFD1 knockdown: yes (Tet-on shOFD1, 100 ng/mL doxycycline)
Parameter: IC50 cell viability (µM)

Please review the following examples before continuing.
[[record]]
compound = "C[C@H]1C[C@H]2[C@@H]3CCC4=CC(=O)C=C[C@]4(C)[C@H]3C(=O)C[C@]2(C)[C@@]1(O)C(=O)CO [S1689]"
parameter = "IC50 cell viability"
experimental_value = 16.8

[[record]]
compound = "COc1cc2c(Oc3ccc4[nH]c(C)cc4c3F)ncnc2cc1OCCCN1CCCC1 [S1017]"
parameter = "IC50 cell viability"
experimental_value = 13.5

[[record]]
compound = "COc1cc2ncnc(Nc3ccc(F)c(Cl)c3)c2cc1NC(=O)/C=C/CN1CCCCC1 [S2727]"
parameter = "IC50 cell viability"
experimental_value = 29.6


[P] CC(C)n1c(/C=C/C(O)CC(O)CC(=O)O)c(-c2ccc(F)cc2)c2ccccc21 (stereo not drawn) [S1909]
[Q] CNCc1ccc(-c2[nH]c3cc(F)cc4c3c2CCNC4=O)cc1 [S1098]
Task: Given the listed records, identify the one among P and Q with higher IC50 cell viability. Refer to your chosen entry by its label in the reply.
Output: Q

---

# Tested on: MIA PaCa-2
# Experimental parameters: OFD1 knockdown: no (no doxycycline)
Parameter: IC50 cell viability (µM)

[a] C[C@@H](O[C@H]1OCCN(Cc2n[nH]c(=O)[nH]2)[C@H]1c1ccc(F)cc1)c1cc(C(F)(F)F)cc(C(F)(F)F)c1
[b] O=c1[nH]cc(F)c(=O)[nH]1
Task: Please indicate which entry, a or b , has the lower recorded IC50 cell viability value. Use the label to indicate which entry you chose.
Output: b

[a] CO[C@H]1C[C@@H]2CC[C@@H](C)[C@@](O)(O2)C(=O)C(=O)N2CCCC[C@H]2C(=O)O[C@H]([C@H](C)C[C@@H]2CC[C@@H](O)[C@H](OC)C2)CC(=O)[C@H](C)/C=C(\C)[C@@H](O)[C@@H](OC)C(=O)[C@H](C)C[C@H](C)/C=C/C=C/C=C/1C
[b] COc1c(C)c2c(c(O)c1C/C=C(\C)CCC(=O)O)C(=O)OC2
Task: # return whichever of a and b has the smaller IC50 cell viability Response format: the label of the selected entry.
Output: a
(a: 0.56 µM, b: 10.9 µM)

[A] C=CCNC1=C2C[C@@H](C)C[C@H](OC)[C@H](O)[C@@H](C)/C=C(\C)[C@H](OC(N)=O)[C@@H](OC)/C=C\C=C(/C)C(=O)NC(=CC1=O)C2=O
[B] CC(=O)O[C@]1(C(C)=O)CC[C@H]2[C@@H]3C=C(C)C4=CC(=O)CC[C@]4(C)[C@H]3CC[C@@]21C
[C] COc1cc2nc(N3CCN(C(=O)C4COc5ccccc5O4)CC3)nc(N)c2cc1OC (centres undefined)
Task: Rank descending by IC50 cell viability. # format: label list in the order the request specifies
Output: C, B, A
(C: 18.1 µM, B: 2.01 µM, A: 1.07 µM)

[P] COc1cc(Nc2nc3ccccc3nc2NS(=O)(=O)c2ccc(NC(=O)c3ccc(C)c(OC)c3)cc2)cc(OC)c1
[Q] CCc1ccc(CCOc2ccc(CC3SC(=O)NC3=O)cc2)nc1 (centres undefined)
[R] C=CC(=O)Nc1cc(Nc2nccc(-c3cn(C)c4ccccc34)n2)c(OC)cc1N(C)CCN(C)C
[S] CNC(=O)c1cc(Oc2ccc(NC(=O)Nc3ccc(Cl)c(C(F)(F)F)c3)c(F)c2)ccn1
[T] C[C@]12CC[C@@H]3c4ccc(O)cc4C[C@@H](CCCCCCCCC[S+]([O-])CCCC(F)(F)C(F)(F)F)[C@H]3[C@@H]1CC[C@@H]2O (some centres undefined)
Task: Hey, quick one: sort these by IC50 cell viability, largest value first please. Reply with the labels, ordered as the question asks.
Output: P, T, R, Q, S
(P: 47.6 µM, T: 25.6 µM, R: 11.4 µM, Q: 2.72 µM, S: 1.56 µM)

---

# Test system: MIA PaCa-2
# Experimental parameters: OFD1 knockdown: no (no doxycycline)
Parameter: IC50 cell viability (µM)

[[record]]
compound = "CC(C)C(=O)Nc1ccc([N+](=O)[O-])c(C(F)(F)F)c1 [S1908]"
experimental_value = 2.71

[[record]]
compound = "CNCc1ccc(-c2[nH]c3cc(F)cc4c3c2CCNC4=O)cc1 [S1098]"
experimental_value = 31.8

[[record]]
compound = "COc1cc2nccc(Oc3ccc(NC(=O)Nc4cc(C)on4)c(Cl)c3)c2cc1OC [S1207]"
experimental_value = 10

[[record]]
compound = "CN(C)C/C=C/C(=O)Nc1cc2c(Nc3ccc(F)c(Cl)c3)ncnc2cc1O[C@H]1CCOC1 [S1011]"
experimental_value = 66.1

[[record]]
compound = "O=C1[C@H](CC[C@H](O)c2ccc(F)cc2)[C@@H](c2ccc(O)cc2)N1c1ccc(F)cc1 [S1655]"
experimental_value = 3.33

[[record]]
compound = "O=C1CCC(N2C(=O)c3ccccc3C2=O)C(=O)N1 (configuration not stated) [S1193]"
experimental_value = 29.9

[[record]]
compound = "Nc1cccc2c1C(=O)N(C1CCC(=O)NC1=O)C2=O (configuration not stated) [S1567]"
experimental_value = 15.7

[[record]]
compound = "C[C@]1(c2nc3c(C(N)=O)cccc3[nH]2)CCCN1 [S1004]"
experimental_value = 77

[[record]]
compound = "O=S(=O)(O)CCSSCCS(=O)(=O)O [S1201]"
experimental_value = 82.1

[[record]]
compound = "Cc1cnc(Nc2ccc(OCCN3CCCC3)cc2)nc1Nc1cccc(S(=O)(=O)NC(C)(C)C)c1 [S2736]"
experimental_value = 14.5


[I] CC1(COc2ccc3c(c2)ncn3-c2ccc3cccc(N4CCC(N)CC4)c3n2)COC1 [S2730]
[II] COc1cc(OC)c(/C=C/S(=O)(=O)Cc2ccc(OC)c(NCC(=O)O)c2)c(OC)c1 [S1362]
[III] Cc1ccccc1C(=O)Nc1ccc(C(=O)N2CCCC(O)c3cc(Cl)ccc32)c(C)c1 (configuration not stated) [S2593]
[IV] CN(N=O)C(=O)NC1C(O)OC(CO)C(O)C1O (configuration not stated) [S1312]
Task: Highest IC50 cell viability first, then in falling order down to the smallest. State the ranking by listing the labels in the requested order.
Output: IV, I, III, II

[P] Nc1nc(CC(=O)Nc2ccc(CCNC[C@H](O)c3ccccc3)cc2)cs1 [S4009]
[Q] CCOc1ccc(Cc2cc([C@@H]3O[C@H](CO)[C@@H](O)[C@H](O)[C@H]3O)ccc2Cl)cc1 [S1548]
Task: Return label of the item with the larger IC50 cell viability. Candidates: P , Q . Respond using the label that marks the chosen record.
Output: P

---

# System: MIA PaCa-2
# Experimental parameters: OFD1 knockdown: no (no doxycycline)
Parameter: IC50 cell viability (µM)

[[record]]
compound = "CC(O)(CS(=O)(=O)c1ccc(F)cc1)C(=O)Nc1ccc(C#N)c(C(F)(F)F)c1 (stereo unspecified)"
parameter = "IC50 cell viability"
experimental_value = 53.5


[a] CS(=O)(=O)CCNCc1ccc(-c2ccc3ncnc(Nc4ccc(OCc5cccc(F)c5)c(Cl)c4)c3c2)o1 [S2111]
[b] COc1ccc(-c2nc3cc(C4=NNC(=O)CC4C)ccc3[nH]2)cc1 (stereo unspecified)
Task: Quick check, higher IC50 cell viability between a and b ? Kindly give the label for the entry you pick.
Output: b
(b: 26.3 µM, a: 9.12 µM)

[P] COc1cccc2c1C(=O)c1c(O)c3c(c(O)c1C2=O)CC(O)(C(=O)CO)CC3OC1CC(N)C(O)C(C)O1 (stereo unspecified)
[Q] Nc1cccc2c1CN(C1CCC(=O)NC1=O)C2=O (stereo unspecified)
[R] CN1CC(=O)N2[C@H](c3ccc4c(c3)OCO4)c3[nH]c4ccccc4c3C[C@@H]2C1=O
[S] CC(C)(C)c1cc(NC(=O)Nc2ccc(-c3cn4c(n3)sc3cc(OCCN5CCOCC5)ccc34)cc2)no1
Task: Sort (4 compounds) by IC50 cell viability: min first. Submit the labels in the order that the ranking request calls for.
Output: P, S, R, Q
(P: 1.85 µM, S: 13.8 µM, R: 23.7 µM, Q: 44 µM)
